system: Steroid 5-α-Reductase
method_notes: Steroid 5-α-reductase in vitro assay, rat prostate microsomes
experimental_conditions: rat prostatic microsomes; 100 nM [3H]-testosterone, 1 mM NADPH, 60 minutes at 37° C.; read-out: ID50 Rat
# IC50 values compiled below

{"columns": ["compound", "IC50"],
 "data": [
  ["CON(C)C(=O)[C@H]1CC[C@H]2[C@@H]3CNC4=CC(=O)CC[C@]4(C)[C@H]3CC[C@]12C", "0.1 to 1 µM"],
  ["CCN(CC)C(=O)[C@H]1CC[C@H]2[C@@H]3CN(C)C4=C(C)C(=O)CC[C@]4(C)[C@H]3CC[C@]12C", "0.1 to 1 µM"],
  ["CCN(CC)C(=O)[C@H]1CC[C@H]2[C@@H]3CNC4=C(Cl)C(=O)CC[C@]4(C)[C@H]3CC[C@]12C", "0.01 to 0.1 µM"],
  ["C[C@]12CC[C@H]3[C@@H](CNC4=CC(=O)CC[C@@]43C)[C@@H]1CC[C@@H]2C(=O)OC1C2CC3CC(C2)CC1C3 (some centres unmarked)", "< 0.01 µM"],
  ["CCN(CC)C(=O)[C@H]1CC[C@H]2[C@@H]3CN(C)C4=CC(=O)CC[C@]4(C)[C@H]3CC[C@]12C", "0.01 to 0.1 µM"]
]}

Q: Could you please provide reported IC50 for CN1C[C@H]2[C@@H]3CC[C@H](C(=O)NC(C)(C)C)[C@@]3(C)CC[C@@H]2[C@@]2(C)C=CC(=O)C=C12 ? Thanks!
A: 0.1 to 1 µM

Q: Could you please provide reported IC50 for C[C@]12CC[C@H]3[C@@H](CNC4=CC(=O)CC[C@@]43C)[C@@H]1CC[C@@H]2C(=O)Sc1ccccn1 ? Thanks!
A: 0.1 to 1 µM

Q: Could you please provide reported IC50 for CN1C[C@H]2[C@@H]3CC[C@H](C(=O)NC45CC6CC(CC(C6)C4)C5)[C@@]3(C)CC[C@@H]2[C@@]2(C)CCC(=O)C=C12 ? Thanks!
A: < 0.01 µM

Q: Could you please provide reported IC50 for C[C@]12CC[C@H]3[C@@H](CNC4=CC(=O)CC[C@@]43C)[C@@H]1CC[C@@H]2C(=O)N1CCOCC1 ? Thanks!
A: 0.1 to 1 µM

Q: Could you please provide reported IC50 for CC1=C2N(C)C[C@H]3[C@@H]4CC[C@H](C(=O)NC(C)(C)C)[C@@]4(C)CC[C@@H]3[C@@]2(C)CCC1=O ? Thanks!
A: 0.1 to 1 µM

Q: Could you please provide reported IC50 for CCN(CC)C(=O)[C@H]1CC[C@H]2[C@@H]3CNC4=C(C)C(=O)CC[C@]4(C)[C@H]3CC[C@]12C ? Thanks!
A: 0.1 to 1 µM

Q: Could you please provide reported IC50 for CCN(CC)C(=O)[C@H]1CC[C@H]2[C@@H]3CNC4=C(Br)C(=O)CC[C@]4(C)[C@H]3CC[C@]12C ? Thanks!
A: 0.1 to 1 µM

Q: Could you please provide reported IC50 for CCN(CC)C(=O)[C@H]1CC[C@H]2[C@@H]3CN(C)C4=CC(=O)C=C[C@]4(C)[C@H]3CC[C@]12C ? Thanks!
A: 0.1 to 1 µM

Q: Could you please provide reported IC50 for CCN(CC)C(=O)/C=C/[C@H]1CC[C@H]2[C@@H]3CNC4=CC(=O)CC[C@]4(C)[C@H]3CC[C@]12C ? Thanks!
A: 0.01 to 0.1 µM
